- system-name: CXCL5_HUMAN
- assay-name: BLI
measurement-label: pKd
Worth noting: pKd values are minus log10 of concentrations stated in mol/L.

Could you share which pKd value was measured for P1156_IXORI (other) ADDDNELFTVQYCGMNCTKDEGGTWTGCTGKKEGCKCYHESGKNYGLCLSTEYTDFSQYGNPSDSEIEAAKPKRSDTLSH ?
7.14

Where do these numbers come from? They come from patent US20200247855A1.
